System: cultured cerebral cortex neurons
experiment notes: 3H-GABA release, cultured cerebral cortex neurons
Type: cell-based
assay setup: Cerebral cortex neuron; inhibition of stimulated 3H-GABA release, mouse cortical neurons, Table 1
Each record here notes measured pIC50.
Please express pIC50 as -log10 of the molar concentration.

For orientation, consider the following solved cases.
given smiles | numeric value
CN1CCc2c(-c3ccc(S(=O)(=O)N4CCCCC4)cc3)cc3c(c2C1)NC(=O)C3=NO | 6.62
CN1CCc2c(-c3ccc(S(=O)(=O)NCCO)cc3)cc3c(c2C1)NC(=O)C3=NO | 6.48

Lab note: need pIC50 for CN1CCc2c(-c3ccc(S(=O)(=O)N4CCN(Cc5ccc6c(c5)OCO6)CC4)cc3)cc3c(c2C1)NC(=O)C3=NO on cultured cerebral cortex neurons, anyone have it?
6.30

Lab note: need pIC50 for CN1CCc2c(-c3ccc(S(=O)(=O)N4CCN(CCO)CC4)cc3)cc3c(c2C1)NC(=O)C3=NO on cultured cerebral cortex neurons, anyone have it?
7.00

Lab note: need pIC50 for CN1CCc2c(-c3ccc(S(=O)(=O)N(CCO)CCO)cc3)cc3c(c2C1)NC(=O)C3=NO on cultured cerebral cortex neurons, anyone have it?
6.89

Lab note: need pIC50 for CCN1Cc2c(-c3ccc(S(=O)(=O)N4CCOCC4)cc3)cc3c(c2C1)NC(=O)C3=NO on cultured cerebral cortex neurons, anyone have it?
6.30

Lab note: need pIC50 for CN1CCc2c(-c3ccc(S(=O)(=O)N4CCOCC4)cc3)cc3c(c2C1)NC(=O)C3=NO on cultured cerebral cortex neurons, anyone have it?
7.52

Lab note: need pIC50 for CN1CCc2c(c(-c3ccc(S(=O)(=O)N4CCOCC4)cc3)cc3c2NC(=O)C3=NO)C1 on cultured cerebral cortex neurons, anyone have it?
6.60

Lab note: need pIC50 for CN1CCc2c(-c3ccc(S(=O)(=O)N(C)C)cc3)cc3c(c2C1)NC(=O)C3=NOC(C)(C)C on cultured cerebral cortex neurons, anyone have it?
5.26

Lab note: need pIC50 for CN1CCc2c(-c3ccc(S(=O)(=O)N(Cc4ccccc4)Cc4ccccc4)cc3)cc3c(c2C1)NC(=O)C3=NO on cultured cerebral cortex neurons, anyone have it?
5.72

Lab note: need pIC50 for CON=C1C(=O)Nc2c1cc(-c1ccc(S(=O)(=O)N3CCOCC3)cc1)c1c2CCN(C)C1 on cultured cerebral cortex neurons, anyone have it?
5.80

Lab note: need pIC50 for CN(C)CCN(C)S(=O)(=O)c1ccc(-c2cc3c(c4c2CCN(C)C4)NC(=O)C3=NO)cc1 on cultured cerebral cortex neurons, anyone have it?
6.51

Lab note: need pIC50 for CN1CCc2c(-c3ccc(S(=O)(=O)N(C)C)cc3)cc3c(c2C1)NC(=O)C3=NO on cultured cerebral cortex neurons, anyone have it?
6.92

Lab note: need pIC50 for CN1CCc2c(-c3ccc(S(=O)(=O)NC(C)(C)C)cc3)cc3c(c2C1)NC(=O)C3=NO on cultured cerebral cortex neurons, anyone have it?
6.62

Lab note: need pIC50 for CCOC(=O)CNS(=O)(=O)c1ccc(-c2cc3c(c4c2CCN(C)C4)NC(=O)C3=NO)cc1 on cultured cerebral cortex neurons, anyone have it?
6.47

* * *

Each record here notes measured pIC50.
target under test: AMPA receptor
experiment notes: AMPA receptor binding affinity (in vitro)
assay setup: Table 1
Please express pIC50 as -log10 of the molar concentration.

given smiles | property | numeric value
CN1CCc2c(-c3ccc(S(=O)(=O)N(CCO)CCO)cc3)cc3c(c2C1)NC(=O)C3=NO | pIC50 | 7.30

Could you tell me which pIC50 is on file for CCN1Cc2c(-c3ccc(S(=O)(=O)N4CCOCC4)cc3)cc3c(c2C1)NC(=O)C3=NO ?
6.85

Could you tell me which pIC50 is on file for CN1CCc2c(-c3ccc(S(N)(=O)=O)cc3)cc3c(c2C1)NC(=O)C3=NO ?
7.60

Could you tell me which pIC50 is on file for CON=C1C(=O)Nc2c1cc(-c1ccc(S(=O)(=O)N(C)C)cc1)c1c2CN(C)CC1 ?
6.70

Could you tell me which pIC50 is on file for CCOC(=O)c1ccc(-c2cc3c(c4c2CCN(C)C4)NC(=O)C3=NO)cc1 ?
7.00

Could you tell me which pIC50 is on file for CON=C1C(=O)Nc2c1cc(-c1ccc(S(=O)(=O)N3CCOCC3)cc1)c1c2CCN(C)C1 ?
6.66

Could you tell me which pIC50 is on file for CN1CCc2c(-c3ccc(S(=O)(=O)N4CCOCC4)cc3)cc3c(c2C1)NC(=O)C3=NO ?
7.40

Could you tell me which pIC50 is on file for CN1CCc2c(c(-c3ccc(S(=O)(=O)N4CCOCC4)cc3)cc3c2NC(=O)C3=NO)C1 ?
6.96

Could you tell me which pIC50 is on file for CCN(CC)CCN(CCN(CC)CC)S(=O)(=O)c1ccc(-c2cc3c(c4c2CCN(C)C4)NC(=O)C3=NO)cc1 ?
7.42
